Target: HLA-A*0201 (human)
Details: remark: other sources report otherwise
measurement.label: pIC50
Quick note: pIC50 means taking -log10 of the concentration in moles per liter.

Problem: Which pIC50 reading was recorded for the binder SLSLGFLFLL [peptide 1419.51, PAP.13] ?
Solution: 7.40
